# Tested on: GFP-labeled iPSC-derived human cortical glutamatergic neurons
# assaySummary: cells
# runParameters: Neuron, 48 h, read-out: Viability AC50 (48hr)
Criterion: AC50 strictly less than 10 µM. Met: 1 (yes). Not met: 0 (no).

compound: COc1ccc(/C=C/C(=O)c2ccc(O)cc2O)cc1 [2',4'-DIHYDROXY-4-METHOXYCHALCONE]
labelValue: 0 (no)
--
compound: Cc1c(O)c(O)cc2c1CC=C1[C@@]2(C)CC[C@@]2(C)[C@H]3C[C@](C)(C(=O)O)CC[C@]3(C)CC[C@]12C
labelValue: 1 (yes)
--
compound: O=C1NC(=O)C(c2c[nH]c3ccccc23)=C1c1c[nH]c2ccccc12 [Bisindolylmaleimide IV]
labelValue: 0 (no)
--
compound: COc1cc([C@@H]2c3cc4c(cc3C[C@H]3COC(=O)[C@@H]32)OCO4)cc(OC)c1O
labelValue: 1 (yes)
--
compound: COc1ccc(-c2coc3c(O)c(O)c(OC)cc3c2=O)cc1
labelValue: 0 (no)
--
compound: COc1ccc2c(c[n+](C)c3c4cc5c(cc4ccc23)OCO5)c1OC [Chelerythrine chloride]
labelValue: 1 (yes)
--
compound: COC(=O)[C@H]1[C@H]2C[C@@H]3c4[nH]c5cc(OC)ccc5c4CCN3C[C@H]2C[C@@H](OC(=O)c2cc(OC)c(OC)c(OC)c2)[C@@H]1OC [Reserpine, reference compound]
labelValue: 0 (no)
--
compound: COc1ccc2c(c1OC)C(=O)O[C@@H]2[C@H]1c2c(cc3c(c2OC)OCO3)CCN1C [Noscapine, reference compound]
labelValue: 0 (no)
--
compound: C=CC[C@@H]1/C=C(\C)C[C@H](C)C[C@H](OC)[C@H]2O[C@@](O)(C(=O)C(=O)N3CCCC[C@H]3C(=O)O[C@H](/C(C)=C/[C@@H]3CC[C@@H](O)[C@H](OC)C3)[C@H](C)[C@@H](O)CC1=O)[C@H](C)C[C@@H]2OC [Tacrolimus, reference compound]
labelValue: 1 (yes)
--
compound: CC(C)c1cc2c(c(O)c1O)[C@@]13CCCC(C)(C)[C@@H]1C[C@@H]2OC3=O
labelValue: 0 (no)
--
compound: C=C(C)[C@@]12OC3(c4ccccc4)O[C@@H]1[C@@H]1[C@@H]4O[C@]4(CO)[C@@H](O)[C@]4(O)C(=O)C(C)=C[C@H]4[C@@]1(O3)[C@H](C)[C@H]2OC(=O)/C=C/C=C/c1ccccc1
labelValue: 1 (yes)
--
compound: CC1=C[C@H](O)CC(C)(C)[C@H]1/C=C/C(C)=C/C=C/C(C)=C/C=C/C=C(C)/C=C/C=C(C)/C=C/C1=C(C)C[C@@H](O)CC1(C)C
labelValue: 0 (no)
--
compound: COc1ccc(C(=O)/C=C/c2ccccc2)cc1
labelValue: 0 (no)
--
compound: COC(=O)[C@H]1[C@H]2C[C@@H]3c4[nH]c5ccccc5c4CCN3C[C@H]2C[C@@H](OC(=O)c2cc(OC)c(OC)c(OC)c2)[C@@H]1OC [Deserpidine, reference compound]
labelValue: 0 (no)
--
compound: CC(=O)O[C@@H]1C[C@@]2(C)[C@H](c3ccoc3)C[C@H]3O[C@]32[C@]2(C)C(=O)C(O)=C3C(C)(C)C(=O)C=C[C@]3(C)C12 (some centres unmarked)
labelValue: 1 (yes)
--
compound: C=C(C)[C@@H]1CCC2=CC(=O)C[C@@H](C)[C@]2(C)C1
labelValue: 1 (yes)
--
compound: Cc1cc2c(C(C)C)c(O)c(O)c(C=O)c2c(O)c1-c1c(C)cc2c(C(C)C)c(O)c(O)c(C=O)c2c1O
labelValue: 1 (yes)
--
compound: COc1cc(C2c3cc4c(c(O)c3CC3COC(=O)C32)OCO4)cc(OC)c1O (centres unmarked)
labelValue: 1 (yes)
--
compound: CN1Cc2c(ccc3c2OCO3)[C@@H]2[C@H]1c1cc3c(cc1C[C@@H]2O)OCO3
labelValue: 1 (yes)
--
compound: O=c1cc(-c2ccc(O)cc2)oc2cc(O)cc(O)c12
labelValue: 0 (no)
--
compound: COc1cc(O)c2c(c1)C1OC1C[C@H](O)[C@H](O)C(=O)C=CC[C@H](C)OC2=O (some centres unmarked)
labelValue: 0 (no)
--
compound: O=c1cc(-c2ccc(O)c(O)c2)oc2ccccc12 [3',4'-DIHYDROXYFLAVONE]
labelValue: 0 (no)
--
compound: COc1cc(C)ccc1O
labelValue: 0 (no)
--
compound: CCCCCc1cc(O)c2c(c1)OC(C)(C)c1ccc(C)cc1-2
labelValue: 0 (no)
--
compound: CC[C@@]1(O)C[C@H](O[C@H]2C[C@H](N(C)C)[C@H](O)[C@H](C)O2)c2c(cc3c(c2O)C(=O)c2c(O)ccc(O)c2C3=O)[C@H]1C(=O)OC
labelValue: 1 (yes)
--
compound: COc1ccc(/C=C\c2cc(OC)c(OC)c(OC)c2)cc1O
labelValue: 1 (yes)
--
compound: C[C@H]1COC2=C1C(=O)C(=O)c1c2ccc2c1CCCC2(C)C
labelValue: 0 (no)
--
compound: Cc1c2ccncc2c(C)c2c1[nH]c1ccccc12
labelValue: 0 (no)

----------
# assaySummary: in vitro
# runParameters: PAMPA, PAMPA-BBB Pe(10^-6 cm/sec), Table S3: compounds exhibiting low PAMPA-BBB permeability

compound: C=C/C(C)=C/C/C=C(\C)CCC=C(C)C
measurementUnit: ×10⁻⁶ cm/s
qualifierSymbol: <
Papp: 1
--
compound: CO[C@@H]1[C@H](O)C[C@@H](O[C@@H]2C[C@H](Oc3cc4cc5c(c(O)c4c(O)c3C)C(=O)[C@@H](O[C@H]3C[C@@H](O[C@H]4C[C@@H](O[C@H]6C[C@](C)(O)[C@@H](OC(C)=O)[C@H](C)O6)[C@H](O)[C@@H](C)O4)[C@H](O)[C@@H](C)O3)[C@H]([C@H](OC)C(=O)[C@@H](O)[C@@H](C)O)C5)O[C@H](C)[C@@H]2OC(C)=O)O[C@@H]1C
measurementUnit: ×10⁻⁶ cm/s
qualifierSymbol: <
Papp: 1
--
compound: O=C(O[C@@H]1Cc2c(O)cc(O)cc2O[C@@H]1c1cc(O)c(=O)c2c(O)c(O)cc([C@H]3Oc4cc(O)cc(O)c4C[C@H]3O)c2c1)c1cc(O)c(O)c(O)c1 [THEAFLAVIN MONOGALLATE]
measurementUnit: ×10⁻⁶ cm/s
qualifierSymbol: <
Papp: 1
--
compound: O=C(O)[C@H]1O[C@@H](Oc2cc3oc(-c4ccccc4)cc(=O)c3c(O)c2O)[C@H](O)[C@@H](O)[C@@H]1O
measurementUnit: ×10⁻⁶ cm/s
qualifierSymbol: =
Papp: 1.3
--
compound: CC1=C(/C=C/C(C)=C/C=C/C(C)=C/C=C/C=C(C)/C=C/C=C(C)/C=C/C2=C(C)C[C@@H](O)CC2(C)C)C(C)(C)C[C@H](O)C1
measurementUnit: ×10⁻⁶ cm/s
qualifierSymbol: =
Papp: 2.1
--
compound: O[C@@H]1[C@@H](O)[C@H](OC/C=C/c2ccccc2)O[C@H](CO[C@@H]2OC[C@H](O)[C@H](O)[C@H]2O)[C@H]1O
measurementUnit: ×10⁻⁶ cm/s
qualifierSymbol: <
Papp: 1
--
compound: Cc1cc(O)c(C=O)c2c1C(=O)Oc1c(C)c(O)c3c(c1O2)C(O)OC3=O (stereo not shown)
measurementUnit: ×10⁻⁶ cm/s
qualifierSymbol: =
Papp: 2
--
compound: OCC(O)Cc1ccc2c(c1)OCO2 (stereo not shown)
measurementUnit: ×10⁻⁶ cm/s
qualifierSymbol: =
Papp: 1.7
--
compound: O=C(O)/C=C/c1ccc2c(c1)OCO2
measurementUnit: ×10⁻⁶ cm/s
qualifierSymbol: <
Papp: 1
--
compound: Cc1cc(=O)oc2cc(O)ccc12
measurementUnit: ×10⁻⁶ cm/s
qualifierSymbol: =
Papp: 9.9
--
compound: CO[C@H]1/C=C/O[C@@]2(C)Oc3c(C)c(O)c4c(O)c(cc(O)c4c3C2=O)NC(=O)/C(C)=C\C=C\[C@H](C)[C@H](O)[C@@H](C)[C@@H](O)[C@@H](C)[C@H](OC(C)=O)[C@@H]1C
measurementUnit: ×10⁻⁶ cm/s
qualifierSymbol: <
Papp: 1
--
compound: Cc1cccc2c3c(ccc12)C1=C(C(=O)C3=O)[C@@H](C)CO1 [DIHYDROTANSHINONE I]
measurementUnit: ×10⁻⁶ cm/s
qualifierSymbol: =
Papp: 3.7
--
compound: CC(C)C1=CC2=CC[C@@H]3[C@](C)(CCC[C@@]3(C)C(=O)O)[C@H]2CC1 [SODIUM ABIETATE]
measurementUnit: ×10⁻⁶ cm/s
qualifierSymbol: <
Papp: 1

----------
The entries below are paired with their reported Papp.
# assaySummary: in vitro
# runParameters: PAMPA, PAMPA-BBB Pe, Table S2: compounds exhibiting moderate to high PAMPA-BBB permeability

compound: COc1cc([C@@H]2c3cc4c(cc3C[C@H]3COC(=O)[C@@H]32)OCO4)cc(OC)c1O
Papp (×10⁻⁶ cm/s): 11
//
compound: C/C=C(\C)C(=O)O[C@@H]1c2c(ccc3ccc(=O)oc23)OC(C)(C)[C@@H]1OC(C)=O [PTERYXINE]
Papp (×10⁻⁶ cm/s): 205
//
compound: CCCCCCCCCCCCCC(=O)O[C@@H]1[C@@H](C)[C@@]2(O)[C@@H](C=C(CO)C[C@]3(O)C(=O)C(C)=C[C@@H]23)[C@@H]2C(C)(C)[C@]12OC(C)=O [PHORBOL MYRISTATE ACETATE]
Papp (×10⁻⁶ cm/s): 47
//
compound: O=c1ccc2ccccc2o1 [COUMARIN]
Papp (×10⁻⁶ cm/s): 74
//
compound: C=C[C@H]1CN2CC[C@@]3(C(=O)Nc4ccccc43)[C@@H]2C[C@@H]1/C(=C\OC)C(=O)OC [ISOCORYNOXEINE]
Papp (×10⁻⁶ cm/s): 37
//
compound: O=C(/C=C/c1ccccc1)c1ccc(O)cc1O
Papp (×10⁻⁶ cm/s): 223
//
compound: COC(=O)C=Cc1ccccc1 [METHYL CINNAMATE]
Papp (×10⁻⁶ cm/s): 98
//
compound: COc1ccc(-c2oc3cc(OC)c(OC)c(OC)c3c(=O)c2OC)cc1OC
Papp (×10⁻⁶ cm/s): 120
//
compound: Cn1c2cccc(=O)c-2nc2ccccc21 [PYOCYANINE]
Papp (×10⁻⁶ cm/s): 299
//
compound: CC1=C2[C@H]3OC(=O)[C@@H](C)[C@@H]3CC[C@@]2(C)C=CC1=O [SANTONINUM]
Papp (×10⁻⁶ cm/s): 49
//
compound: c1cc2c(cc1[C@H]1OC[C@H]3[C@@H]1CO[C@@H]3c1ccc3c(c1)OCO3)OCO2 [Sesamin]
Papp (×10⁻⁶ cm/s): 211
//
compound: C=C1CC[C@H](O)C/C1=C/C=C1\CCC[C@]2(C)[C@@H]([C@H](C)CCC(O)C(C)(C)O)CC[C@@H]12 (some centres unmarked) [24,25-DIHYDROXYVITAMIN D3]
Papp (×10⁻⁶ cm/s): 78
//
compound: CCOC(=O)/C=C/c1ccccc1 [ETHYL CINNAMATE]
Papp (×10⁻⁶ cm/s): 110
//
compound: COc1ccc2c(c[n+](C)c3c4cc5c(cc4ccc23)OCO5)c1OC [CHELE[…]]
Papp (×10⁻⁶ cm/s): 95
//
compound: COc1ccc2c(c1O)-c1c(OC)c(OC)cc3c1[C@H](C2)N(C)CC3 [ISOCORYDINE]
Papp (×10⁻⁶ cm/s): 74
//
compound: CC1=C[C@H](O)CC(C)(C)[C@H]1/C=C/C(C)=C/C=C/C(C)=C/C=C/C=C(C)/C=C/C=C(C)/C=C/C1=C(C)C[C@@H](O)CC1(C)C [XANTOFYL]
Papp (×10⁻⁶ cm/s): 28
//
compound: COc1ccc(C(=O)O[C@H]2CC[C@@]3(C)[C@@H]4CC[C@H]5[C@]6(O)C[C@H](O)[C@@]7(O)[C@@H](CN8C[C@@H](C)CC[C@H]8[C@@]7(C)O)[C@]6(O)C[C@@]53O[C@]24O)cc1OC [VERATRIDINE]
Papp (×10⁻⁶ cm/s): 17
//
compound: COc1cc2c(O)c3c(c(-c4ccc5c(c4)OCO5)c2cc1OC)C(=O)OC3 [DIPHYLLIN]
Papp (×10⁻⁶ cm/s): 187
//
compound: Cn1cccc1-c1cccnc1 [NICOTYRINE]
Papp (×10⁻⁶ cm/s): 102
//
compound: COc1ccccc1/C=C/C=O [2'-METHOXYCINNAMALDEHYDE]
Papp (×10⁻⁶ cm/s): 122
